The origin of these recorded values is ChEMBL document CHEMBL1955801.

What log10 of EC50 was measured for each of the following?
- target: Peroxisome proliferator-activated receptor gamma (Homo sapiens, UniProt P37231)
- Sequence (P37231 whole entry, the tested form may be a part): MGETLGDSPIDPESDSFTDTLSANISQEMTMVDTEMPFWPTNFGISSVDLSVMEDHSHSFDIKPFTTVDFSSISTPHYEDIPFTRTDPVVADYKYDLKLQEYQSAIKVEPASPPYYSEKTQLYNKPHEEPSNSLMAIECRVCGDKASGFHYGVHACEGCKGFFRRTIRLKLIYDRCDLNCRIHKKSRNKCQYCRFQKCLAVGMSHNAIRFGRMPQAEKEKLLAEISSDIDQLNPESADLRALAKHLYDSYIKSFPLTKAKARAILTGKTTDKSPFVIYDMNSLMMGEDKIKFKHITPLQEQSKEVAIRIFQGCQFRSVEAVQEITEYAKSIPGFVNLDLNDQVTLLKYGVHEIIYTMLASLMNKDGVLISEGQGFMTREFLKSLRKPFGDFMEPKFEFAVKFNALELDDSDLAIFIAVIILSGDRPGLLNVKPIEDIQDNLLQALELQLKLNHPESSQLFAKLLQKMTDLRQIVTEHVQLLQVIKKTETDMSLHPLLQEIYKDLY
- procedure.details: Agonist activity at GAL4-tagged human PPARgamma ligand binding domain expressed in HepG2 cells assessed as transactivation after 20 hrs by beta-galactosidase reporter gene assay
- Type: cell-based
# values: log10(EC50), units µM

The following compounds have reported results that may help.
compound | target | log10 of EC50
O=C(O)[C@H](Cc1ccccc1)Oc1cccc(C(F)(F)F)c1 | Peroxisome proliferator-activated receptor gamma (Homo sapiens, UniProt P37231) | 1.20
O=C(O)C(Cc1cccc(F)c1)Oc1ccc(Cl)cc1 (racemic) | Peroxisome proliferator-activated receptor gamma (Homo sapiens, UniProt P37231) | 0.54
O=C(O)C(Cc1ccccc1)Oc1cccc(F)c1 (racemic) | Peroxisome proliferator-activated receptor gamma (Homo sapiens, UniProt P37231) | 1.61
O=C(O)C(Cc1ccccc1)Oc1ccccc1F (racemic) | Peroxisome proliferator-activated receptor gamma (Homo sapiens, UniProt P37231) | 1.28
O=C(O)C(Cc1ccccc1)Oc1ccccc1C(F)(F)F (racemic) | Peroxisome proliferator-activated receptor gamma (Homo sapiens, UniProt P37231) | 1.48

Would you mind giving log10 of EC50 for every compound in the list below?
1. O=C(O)C(Cc1ccc(F)cc1)Oc1ccc(Cl)cc1 (racemic)
2. O=C(O)[C@H](Cc1ccccc1)Oc1ccc(Cl)cc1
3. O=C(O)C(Cc1ccc(Cl)cc1)Oc1ccc(Cl)cc1F (racemic)

1. 0.72
2. 0.98
3. -0.05

Would you mind giving log10 of EC50 for every compound in the list below?
1. O=C(O)[C@H](Cc1ccccc1)Oc1ccc(F)cc1
2. O=C(O)C(Cc1ccccc1F)Oc1ccc(Cl)cc1 (racemic)

1: 1.55; 2: 0.69

###

- target: Peroxisome proliferator-activated receptor gamma (Homo sapiens) (UniProt P37231)
- procedure.details: Agonist activity at GAL4-tagged human PPARgamma ligand binding domain expressed in HepG2 cells assessed as transactivation after 20 hrs by beta-galactosidase reporter gene assay relative to pioglitazone
- Assay type: cell-based
What Emax was measured for each of the following?
Give the value; after it, write the unit.

The following compounds have reported results that may help.
compound | assay.value
O=C(O)[C@H](Cc1ccccc1)Oc1ccc(F)cc1 | 58%
O=C(O)C(Cc1ccccc1)Oc1ccccc1F (racemic) | 26%
O=C(O)C(Cc1ccccc1F)Oc1ccc(Cl)cc1 (racemic) | 59%
O=C(O)[C@H](Cc1ccccc1)Oc1ccc(Cl)cc1F | 84%
O=C(O)C(Cc1cccc(F)c1)Oc1ccccc1C(F)(F)F (racemic) | 20%

Would you mind giving Emax for every compound in the list below?
1. O=C(O)C(Oc1ccc(Cl)cc1F)c1ccc(Cl)cc1 (stereo unspecified)
2. O=C(O)C(Cc1cccc(F)c1)Oc1ccc(Cl)cc1F (racemic)
3. O=C(O)C(Cc1ccccc1)Oc1cccc(F)c1 (racemic)

["24%", "83%", "33%"]

Would you mind giving Emax for every compound in the list below?
1. O=C(O)[C@H](Cc1ccccc1)Oc1cccc(C(F)(F)F)c1
2. O=C(O)C(Cc1ccc(Cl)cc1)Oc1ccc(Cl)cc1F (racemic)
3. O=C(O)[C@H](Cc1ccccc1)Oc1ccc(Cl)cc1

1: 44%; 2: 69%; 3: 77%

###

What EC50 was measured for each of the following?
- target: Peroxisome proliferator-activated receptor alpha (Homo sapiens)
- Sequence (Q07869 whole entry): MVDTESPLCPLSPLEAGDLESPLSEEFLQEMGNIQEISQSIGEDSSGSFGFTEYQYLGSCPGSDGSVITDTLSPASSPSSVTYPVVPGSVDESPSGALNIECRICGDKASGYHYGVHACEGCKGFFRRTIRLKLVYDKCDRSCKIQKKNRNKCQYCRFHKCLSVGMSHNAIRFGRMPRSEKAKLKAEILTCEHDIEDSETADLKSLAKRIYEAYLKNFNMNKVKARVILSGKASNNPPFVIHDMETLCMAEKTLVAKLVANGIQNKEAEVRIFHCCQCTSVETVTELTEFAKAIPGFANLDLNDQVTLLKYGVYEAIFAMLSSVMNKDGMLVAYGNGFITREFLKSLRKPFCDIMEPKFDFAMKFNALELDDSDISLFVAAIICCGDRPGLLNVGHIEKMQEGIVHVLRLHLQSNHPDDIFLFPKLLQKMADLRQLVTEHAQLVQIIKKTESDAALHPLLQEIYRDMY
- procedure.details: Agonist activity at GAL4-tagged human PPARalpha ligand binding domain expressed in HepG2 cells assessed as transactivation after 20 hrs by beta-galactosidase reporter gene assay
- Format: cell-based
Answers are plain numbers, in µM.

compound | scale.unit | EC50
O=C(O)C(Cc1ccccc1)Oc1ccc(Cl)c(C(F)(F)F)c1 (stereo unspecified) | µM | 2.5
O=C(O)[C@H](Cc1ccccc1)Oc1cccc(C(F)(F)F)c1 | µM | 9.8
O=C(O)[C@H](Cc1ccc(Cl)cc1)Oc1ccc(Cl)cc1F | µM | 1

Would you mind giving EC50 for every compound in the list below?
1. O=C(O)C(Cc1ccccc1)Oc1ccccc1F (racemic)
2. O=C(O)C(Cc1ccccc1)Oc1ccc(Cl)c(F)c1 (stereo unspecified)
3. O=C(O)C(Cc1cccc(F)c1)Oc1ccc(Cl)cc1 (racemic)

[22.3, 6.5, 5.1]

Would you mind giving EC50 for every compound in the list below?
1. O=C(O)C(Cc1ccc(F)cc1)Oc1ccc(Cl)cc1 (racemic)
2. O=C(O)C(Oc1ccc(Cl)cc1F)c1ccc(Cl)cc1 (stereo unspecified)
3. O=C(O)C(Oc1ccc(Cl)cc1F)c1ccccc1 (stereo unspecified)
4. O=C(O)C(Cc1cccc(F)c1)Oc1ccc(Cl)cc1F (racemic)
5. O=C(O)C(Cc1ccc(Cl)cc1)Oc1ccc(Cl)cc1F (racemic)
6. O=C(O)[C@H](Cc1ccccc1)Oc1ccc(Cl)cc1F

1: 5.4; 2: 10.3; 3: 19; 4: 4.5; 5: 1.4; 6: 2.2
